Measured IC50 (μg/ml) ·OH values are reported for all entries that follow.
- Method notes: Hydroxyl radical scavenging activity
Marks after values point to notes of the source that are not given here.

Recorded results for 2 molecules are shown here.
[
  {
    "Molecule": "O=C(O)Cc1cccc(O)c1 [3-Hydroxyphenylacetic acid, 3-hydroxyphenylacetic acid]",
    "Property measured": "IC50 (μg/ml) ·OH",
    "Observed": "803.47 ± 6.38^g μg/ml"
  },
  {
    "Molecule": "COc1cc(C(=O)O)ccc1O",
    "Property measured": "IC50 (μg/ml) ·OH",
    "Observed": "897.33 ± 9.90^i μg/ml"
  }
]

## Task I would be grateful if you could share the reported IC50 (μg/ml) ·OH for "O=C(O)/C=C/c1ccc(O)cc1" .
## Result 220.13 ± 4.57^e μg/ml

## Task What about Oc1cc(O)c2c(c1)O[C@H](c1ccc(O)c(O)c1)[C@H](O)C2 [(-)-Epicatechin, (-)-epicatechin] ?
## Result 121.27 ± 1.80^a μg/ml

## Task What about Oc1cc(O)c2c(c1)OC1(c3ccc(O)c(O)c3)Oc3cc(O)c4c(c3C2C1O)OC(c1ccc(O)c(O)c1)C(O)C4c1c(O)cc(O)c2c1OC(c1ccc(O)c(O)c1)C(O)C2 (stereo not shown) ?
## Result 122.73 ± 2.35^a μg/ml

## Task What about "O=C(O)/C=C/c1ccc(O)c(O)c1" ?
## Result 161.47 ± 3.31^c μg/ml

## Task What about O=C(O)CCc1ccc(O)cc1 [4-Hydroxyphenylpropionic acid, 4-hydroxyphenylpropionic acid] ?
## Result 813.87 ± 5.48^g μg/ml
